Test system: U2OS
methodDescription: Multiplex assay against U2OS
Assay type: toxicity, cell-based
conditionParameters: human, 24 h, 1 µM, compound concentration 1 uM, replicate 1
For each of the compounds below, state its Population Mitotic Cells (%).
Entry rule: numbers only, all in %.

Query: Which Population Mitotic Cells (%) reading was recorded for the compound COc1c(C)cc(NC(=O)c2nn(Cc3ccc(F)cc3)c3c2CN(C(=O)c2ccc[nH]2)C[C@]3(C)C(N)=O)cc1C ?
Reply: 32

Query: Next compound: CCCC(CCC)C(=O)O
Reply: 16

Query: Also check CCNC1(C(N)=O)CCN(c2ncnc3c2nc(-c2ccccc2Cl)n3-c2ccc(Cl)cc2)CC1
Reply: 20

Query: Continue with Cc1ccccc1C(=O)Nc1ccc(C(=O)N2CCCC(N(C)C)c3ccccc32)cc1.Cl (configuration not stated)
Reply: 11

Query: Consider next the compound O=C(O)c1cc2ccccc2c(Cc2c(O)c(C(=O)O)cc3ccccc23)c1O in the same way.
Reply: 8

Query: // query: Oc1c(CN2CCN(c3ccccn3)CC2)cc(Cl)c2cccnc12
Reply: 11

Query: And the next one, c1cc(OCCCN2CCCCC2)ccc1CN1CCCCC1 ?
Reply: 16

All figures here come from ChEMBL document CHEMBL5058577.
